Value source: patent US20200062863A1

Below, each entry is listed with its recorded Fold affinity improvement.
# Study System: T1, human Factor XIIa-beta (human, UniProt P00748 354-615, limits assumed)
# T1 construct: Bought from Enzyme Research Laboratories; also called FXIIa beta; FXIIa-beta
# T1 sequence: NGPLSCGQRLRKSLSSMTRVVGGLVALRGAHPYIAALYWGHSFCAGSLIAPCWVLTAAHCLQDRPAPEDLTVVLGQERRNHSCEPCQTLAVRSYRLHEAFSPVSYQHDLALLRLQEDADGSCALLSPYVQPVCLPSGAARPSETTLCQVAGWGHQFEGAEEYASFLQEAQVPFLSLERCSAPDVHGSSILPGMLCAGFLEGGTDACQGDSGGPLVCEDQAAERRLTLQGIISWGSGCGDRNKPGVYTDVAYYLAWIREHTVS
# Protocol Details: SPR (Biacore), KD against parental 3F7
Expressed in fold, but write only the number.

## Input Fill blank: measured Fold affinity improvement of the binder VR110 (antibody, V domains shown) VH: EVQLLESGGGLVQPGGSLRLSCAASGFTFSKYIMQWVRQAPGKGLEWVSGIDMPTKGTVYADSVKGRFTISRDNSKNTLYLQMNSLRAEDTAVYYCARALPRSGYLISPHYYYYALDVWGQGTTVTVSS VL: QSELTQPPSASGTPGQRVTISCSGSSSNIGRNYVYWYQQVPGTAPKLLIYSNNQRPSGVPDRFSGSKSGTSASLVISGLRSEDEADYYCAAWDASLRGVFGGGTKLTVLG is ____.
## Output 25

## Input Fill blank: measured Fold affinity improvement of the binder VR112 (antibody, V domains shown) VH: EVQLLESGGGLVQPGGSLRLSCAASGFTFSKYIMQWVRQAPGKGLEWVSGINVPVQGTVYADSVKGRFTISRDNSKNTLYLQMNSLRAEDTAVYYCARALPRSGYLISPHYYYYALDVWGQGTTVTVSS VL: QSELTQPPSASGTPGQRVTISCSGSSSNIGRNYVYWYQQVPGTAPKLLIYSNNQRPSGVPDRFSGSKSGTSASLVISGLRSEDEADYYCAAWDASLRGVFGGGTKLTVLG is ____.
## Output 51

Others:
## Input Fill blank: measured Fold affinity improvement of the binder VR24 (antibody, V domains shown) VH: EVQLLESGGGLVQPGGSLRLSCAASGFTFSKYIMQWVRQAPGKGLEWVSGIRPSGGTTVYADSVKGRFTISRDNSKNTLYLQMNSLRAEDTAVYYCARALPRSGYLISPHYYYYALDVWGQGTTVTVSS VL: QSVLTQPPSASGTPGQRVTISCSGSSEMTVHHYVYWYQQLPGTAPKLLIYSNNQRPSGVPDRFSGSKSGTSASLAISGLRSEDEADYYCAAWDASLRGVFGGGTKLTVLG is ____.
## Output 33
